Target: M-phase phosphoprotein 8 (Homo sapiens)
Experiment: qHTS Validation Assay for Inhibitors for MPP8 Chromodomain Interactions with Methylated Histone Tails (AID 488949); note: nearly all actives have a fitted effect of over 55% in size; note: potency is the fitted concentration of half-maximal effect
Details: AlphaScreen MPP8 binding to H3K9me3 peptide; series mostly up to 114 µM
Inconclusive results are not listed. Calls of active or inactive are those of the source. Calls come from the whole dose curve; as a rule, active = well fitted inhibition curve with a large enough effect; inconclusive = small, poorly fitted or top-dose-only effect; inactive = no such curve, though single readings can be large or run the other way.
measured.endpoint: Potency

{"molecule": "NCCCCNS(=O)(=O)c1cccc2c(Cl)cccc12", "Potency": "inactive"}
{"molecule": "COC(=O)c1c(-c2cc(OC)c(OC)c(OC)c2)c2ccc(OCc3ccccn3)cc2c(=O)n1-c1ccc(N)cc1", "Potency": "28.2 µM (active)"}
{"molecule": "CNCC[C@@H](Oc1ccc(C(F)(F)F)cc1)c1ccccc1", "Potency": "inactive"}
{"molecule": "C[C@H](Cc1ccccc1)Nc1ncnc2c1ncn2[C@@H]1O[C@H](CO)[C@H](O)[C@H]1O", "Potency": "inactive"}
{"molecule": "N[C@H](Cc1ccc(O)c(O)c1)C(=O)O", "Potency": "17.8 µM (active)"}
{"molecule": "Nc1ncnc2c1nc(Sc1ccc(Cl)cc1)n2[C@H]1O[C@@H]2COP(=O)(O)O[C@H]2[C@@H]1O", "Potency": "inactive"}
{"molecule": "OC[C@H]1O[C@@H](n2cnc3c(Nc4ccccc4)ncnc32)[C@H](O)[C@H]1O", "Potency": "inactive"}
{"molecule": "NC(=NCCC[C@H](N)C(=O)O)NO", "Potency": "inactive"}
{"molecule": "CC(=O)O[C@H]1C[C@@H]2CCC3C(CC[C@@]4(C)[C@H]3C[C@H]([N+]3(C)CCCCC3)[C@@H]4OC(C)=O)[C@@]2(C)C[C@@H]1[N+]1(C)CCCCC1 (stereo not given in full)", "Potency": "inactive"}

Task item: State, in one line, measured Potency of COc1ccc(CCNC[C@@H](O)c2ccc(O)cc2)cc1OC
Reply: inactive

* * *

Assay: qHTS drug screen for cell cycle checkpoint inhibitors in PARPi-resistant BRCA-mutant ovarian cancer cell lines. (AID 1963452)
Conditions: PEO1/OlaR viability, CellTiter-Glo luminescence, 96 h; measured here: PEO4 Z-AUC; stronger effect = lower value
Strictly below 0.9 in Z-AUC: condition met. Otherwise: condition not met.

{"smiles.data": "COC(=O)C1=C(C)NC(c2ncc(F)cc2F)=N[C@H]1c1ccc(F)cc1Cl", "answer.label": "condition not met"}
{"smiles.data": "CCc1cnn2c(NCc3ccc[n+]([O-])c3)cc(N3CCCC[C@H]3CCO)nc12", "answer.label": "condition met"}
{"smiles.data": "CCN(CC)CCNC(=O)c1c(C)[nH]c(/C=C2/C(=O)Nc3ccc(-c4csc(-c5ccccc5)n4)cc32)c1C", "answer.label": "condition met"}
{"smiles.data": "CC(C)=CCC[C@](C)(O[C@@H]1O[C@H](CO[C@@H]2O[C@H](CO)[C@@H](O)[C@H](O)[C@H]2O)[C@@H](O)[C@H](O)[C@H]1O)[C@H]1CC[C@]2(C)[C@@H]1[C@H](O)C[C@@H]1[C@@]3(C)CC[C@H](O[C@@H]4O[C@H](CO)[C@@H](O)[C@H](O)[C@H]4O[C@@H]4O[C@H](CO)[C@@H](O)[C@H](O)[C@H]4O)C(C)(C)[C@@H]3CC[C@]12C", "answer.label": "condition not met"}

Task item: Is Z-AUC of Cc1ccc(NC(=O)c2ccc3c(c2)OCCO3)cc1NC(=O)c1ccc2nc(OCCN3CCCC3)ccc2c1 strictly below 0.9?
Reply: condition met

Task item: Is Z-AUC of O=C(Cc1ccccc1)Nc1nnc(CCSCCc2nnc(NC(=O)Cc3ccccc3)s2)s1 strictly below 0.9?
Reply: condition not met

Task item: Is Z-AUC of CCOCOC[C@H](C[C@H](C)C(=O)NO)NC(=O)c1ccc(Oc2ccccc2)cc1 strictly below 0.9?
Reply: condition not met

* * *

Assay: qHTS Assay for Lipid Storage Modulators (AID 1519); note: % is set by controls: 0 for no effect and ±100 for the full control effect
Details: Drosophila S3 cells, BODIPY lipid droplet/cell ratio, laser cytometry; at 57.5 µM (top of the series); cells loaded with oleic acid
Records with an inconclusive call do not appear.
measured.endpoint: activity change, negative = inhibition (%)
State the answer as a number, implicitly in %.

# example entries with known answers
{"smiles.data": "O=C(Nc1cccc(F)c1)N1CC2(CCN(C(=O)c3csnn3)CC2)C1", "result.unit": "%", "value": 5.27}
{"smiles.data": "COc1cccc(-c2cncnc2NC2CCNCC2)c1", "result.unit": "%", "value": 2.06}
{"smiles.data": "Cc1ccccc1-c1cc(NCc2ccccc2)ncn1", "result.unit": "%", "value": 4.42}
{"smiles.data": "COc1cccc(Nc2ncc3nc(CCc4ccccc4)c(=O)n(C)c3n2)c1", "result.unit": "%", "value": -10}

Task item: State, in one line, measured activity change, negative = inhibition of COc1cccc(-c2cncnc2-n2ccnc2)c1
Reply: 7.42

Task item: State, in one line, measured activity change, negative = inhibition of Cc1noc(C)c1C(=O)N1CCC2(CCN(Cc3ccc(C#N)cc3)CC2)CC1
Reply: -1.31

* * *

Biological target: Dual specificity protein kinase CLK4 (Homo sapiens)
Assay: qHTS Assay for Inhibitors of CDC-like Kinase 4 (ADP-FP Assay) (AID 1795); note: nearly all actives have a fitted effect of over 60% in size
Settings: Transcreener ADP fluorescence polarization; series mostly up to 50 µM
Results filed as inconclusive are left out. Calls of active or inactive are those of the source. Calls follow the shape of the dose curve; as a rule, active = well fitted inhibition curve with a large enough effect; inconclusive = small, poorly fitted or top-dose-only effect; inactive = flat fitted curve, though single readings scatter.
The reply should name one outcome from 1 (yes) (active), 0 (no) (inactive)

Look over these answered cases.
{"smiles.data": "COc1cccc(Cn2c(=O)c(-c3cc(F)cc(F)c3)nc3cnc(N4CCN(C)CC4)nc32)c1", "answer.label": "0 (no)"}
{"smiles.data": "CCNc1ncc2nc(-c3ccccc3)c(=O)n(Cc3cccs3)c2n1", "answer.label": "0 (no)"}
{"smiles.data": "O=c1cnc2cncnc2n1Cc1ccccc1Cl", "answer.label": "0 (no)"}
{"smiles.data": "O=c1c(-c2cc(F)cc(F)c2)nc2cnc(N3CCOCC3)nc2n1Cc1cccs1", "answer.label": "0 (no)"}

Task item: Dear colleague, could you share the recorded outcome for COc1ccc(-c2nc3cnc(Nc4cccc(OC)c4)nc3n(C[C@H]3CCCO3)c2=O)cc1 when you have a moment?
Reply: 0 (no)

Task item: Dear colleague, could you share the recorded outcome for COc1ccc(-c2nc3cnc(Nc4cccc(OC)c4)nc3n(C)c2=O)cc1 when you have a moment?
Reply: 0 (no)

Task item: Dear colleague, could you share the recorded outcome for CN1CCN(c2ncnc3ccc(-c4ccc5c(c4)OCO5)cc23)CC1 when you have a moment?
Reply: 1 (yes)

Task item: Dear colleague, could you share the recorded outcome for CNc1cc(-c2ccccc2C(F)(F)F)ncn1 when you have a moment?
Reply: 0 (no)

Task item: Dear colleague, could you share the recorded outcome for CN1CCN(c2ncc3nc(-c4cc(F)cc(F)c4)c(=O)n(C4CC4)c3n2)CC1 when you have a moment?
Reply: 0 (no)

Task item: Dear colleague, could you share the recorded outcome for COc1cccc(Nc2ncc3nc(-c4ccccc4)c(=O)n(Cc4cccs4)c3n2)c1 when you have a moment?
Reply: 0 (no)

* * *

Test system: DIV14
Test: qHTS profiling for inhibitors of Plasmodium falciparum proliferation (AID 504749); note: nearly all actives have a fitted effect of over 60% in size
Conditions: P. falciparum in erythrocytes, SYBR Green DNA, 72 h; series mostly up to 28.7 µM
Inconclusive results are not listed. Calls of active or inactive are those of the source. Calls come from the whole dose curve; as a rule, active = well fitted inhibition curve with a large enough effect; inconclusive = small, poorly fitted or top-dose-only effect; inactive = flat fitted curve, though single readings scatter.
The reply should name one outcome from active, inactive

Task item: Dear colleague, could you share the recorded outcome for CN1C(=O)CCC1c1cccnc1 (centres undefined) when you have a moment?
Reply: inactive

Task item: Dear colleague, could you share the recorded outcome for CC(/C=C1\SC(=S)N(CC(=O)O)C1=O)=C\c1ccccc1 when you have a moment?
Reply: inactive

Task item: Dear colleague, could you share the recorded outcome for CO[C@H]1/C=C/O[C@@]2(C)Oc3c(C)c(O)c4c(O)c(c(/C=N\N5CCN(C6CCCC6)CC5)c(O)c4c3C2=O)NC(=O)/C(C)=C\C=C\[C@H](C)[C@H](O)[C@@H](C)[C@@H](O)[C@@H](C)[C@H](OC(C)=O)[C@@H]1C when you have a moment?
Reply: active

Task item: Dear colleague, could you share the recorded outcome for CC(C)C[C@H]1C(=O)N2CCCC2[C@]2(O)O[C@](NC(=O)[C@@H]3C=C4c5cccc6[nH]c(Br)c(c56)C[C@H]4N(C)C3)(C(C)C)C(=O)N12 (some centres undefined) when you have a moment?
Reply: active

* * *

Molecular target: Calcium and integrin-binding protein 1 (Homo sapiens) (UniProt Q99828)
Sequence (Q99828 whole entry, looked up): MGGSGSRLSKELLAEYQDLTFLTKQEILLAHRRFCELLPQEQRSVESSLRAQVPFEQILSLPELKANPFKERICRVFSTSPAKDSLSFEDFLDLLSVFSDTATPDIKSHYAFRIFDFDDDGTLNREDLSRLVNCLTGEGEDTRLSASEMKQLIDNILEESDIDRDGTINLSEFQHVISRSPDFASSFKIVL
Assay: Confirmatory qHTS for Identification of Calcium Integrin Binding Protein 1 (CIB1) Competitor (AID 1508617); note: nearly all actives have a fitted effect of over 65% in size; note: potency is the fitted concentration of half-maximal effect
Settings: CIB1 binding competition assay, biochemical qHTS; series mostly up to 114 µM
Results filed as inconclusive are left out. The source made the active and inactive calls. The call rests on the fitted dose curve; in most records, active means well fitted inhibition curve with a large enough effect; inconclusive means small, poorly fitted or top-dose-only effect; inactive means no such curve, though single readings can be large or run the other way.
measured.endpoint: Potency

{"molecule": "Cc1ccc(S(=O)(=O)Nc2cc3c(cc2C(=O)Nc2nc(-c4ccccc4)cs2)OCO3)cc1", "target.or.test.system": "Calcium and integrin-binding protein 1 (Homo sapiens) (UniProt Q99828)", "Potency": "inactive"}
{"molecule": "O=C1CCCC2=C1C(c1cccnc1Br)N=C(Nc1nc3ccccc3o1)N2 (stereo not given)", "target.or.test.system": "Calcium and integrin-binding protein 1 (Homo sapiens) (UniProt Q99828)", "Potency": "inactive"}
{"molecule": "CC1CCC2(C1)N=C(Nc1nc3ccccc3o1)NC1=C2C(=O)CCC1 (stereo not given)", "target.or.test.system": "Calcium and integrin-binding protein 1 (Homo sapiens) (UniProt Q99828)", "Potency": "inactive"}
{"molecule": "Cc1ccc(C(=O)NC(c2ccco2)c2cc(Cl)c3cccnc3c2O)cc1 (stereo not given)", "target.or.test.system": "Calcium and integrin-binding protein 1 (Homo sapiens) (UniProt Q99828)", "Potency": "inactive"}
{"molecule": "COc1ccc2c(=O)n3nc(Nc4cccc(N5CCN(C)CC5)c4)sc3nc2c1", "target.or.test.system": "Calcium and integrin-binding protein 1 (Homo sapiens) (UniProt Q99828)", "Potency": "inactive"}
{"molecule": "NC(=O)C1CCN(c2ncc(Br)s2)CC1", "target.or.test.system": "Calcium and integrin-binding protein 1 (Homo sapiens) (UniProt Q99828)", "Potency": "50.1 µM (active)"}

Task item: Quote Potency with test system Calcium and integrin-binding protein 1 (Homo sapiens) (UniProt Q99828) for c1ccc(-n2ccc(-c3nnc4n3CCCCC4)c2)cc1
Reply: 50.1 µM (active)

Task item: Quote Potency with test system Calcium and integrin-binding protein 1 (Homo sapiens) (UniProt Q99828) for O=C(NCCCN1CCNCC1)c1cccc(-c2cc(O)c3ncccc3c2)c1
Reply: inactive

Task item: Quote Potency with test system Calcium and integrin-binding protein 1 (Homo sapiens) (UniProt Q99828) for N#Cc1ccc(NS(=O)(=O)c2ccc(NC(=O)Cc3ccc(F)c(Cl)c3)cc2)cc1
Reply: inactive

Task item: Quote Potency with test system Calcium and integrin-binding protein 1 (Homo sapiens) (UniProt Q99828) for Cc1ccc(CNc2ncnc3ccc(-c4ccc([C@@H](C)O)o4)cc23)o1
Reply: inactive

Just for reference, PubChem BioAssay (NCATS) is where these values come from.
